Cited source for all entries: patent US20230000842A1

Tested on: primary human mesenchymal stem cells (hMSCs)
Assay: Chondrogenesis screening using primary human mesenchymal stem cells
Format: cell-based
Conditions: Homo sapiens, Mesenchymal stem cells, hMSC chondrogenesis; concentration required to induce 50% levels of chondrogenesis with TGF-β3 as positive control; read-out: Conc (nM) of 50% TGF-β3 activity

{"columns": ["compound", "EC50"],
 "data": [
  ["Cc1ccc(-c2nccc3[nH]c(-c4n[nH]c5ccc(-c6cncc(N)c6)cc45)nc23)s1 [compound 272]", "2700 nM"],
  ["Nc1cncc(-c2ccc3[nH]nc(-c4nc5c(-c6ccccc6F)cncc5[nH]4)c3n2)c1 [compound 170]", "10 nM"],
  ["Nc1cncc(-c2ccc3[nH]nc(-c4nc5c(-c6ccccc6F)nccc5[nH]4)c3n2)c1 [compound 169]", "10 nM"],
  ["COc1ccc(NC(=O)c2n[nH]c3ccc(-c4cncc(CN5CCCC5)c4)cc23)cn1 [compound 71]", "30 nM"],
  ["CC(C)C(=O)Nc1cncc(-c2cc3c(-c4cc5c(-c6cccnc6)cccc5[nH]4)n[nH]c3cn2)c1 [compound 350]", "10 nM"],
  ["c1cncc(-c2ccc3[nH]nc(-c4cc5cccnc5[nH]4)c3n2)c1 [compound 414]", "10 nM"],
  ["O=C1COc2cccc(c2)-c2cncc3[nH]c(nc23)-c2n[nH]c3ccc(cc23)-c2cncc(c2)N1 [compound 620]", "100 nM"],
  ["CN1CCN(c2nccc3[nH]c(-c4n[nH]c5cnc(-c6cncc(NC(=O)c7ccccc7)c6)cc45)cc23)CC1 [compound 487]", "10 nM"],
  ["O=C(Nc1cnccc1NC(=O)C1CC1)c1n[nH]c2ccc(-c3cncc(CN4CCCCC4)c3)cc12 [compound 86]", "30 nM"],
  ["O=C(Nc1nc2c(-c3cccc(F)c3)cncc2[nH]1)c1n[nH]c2ccc(-c3cccnc3)cc12 [compound 119]", "100 nM"],
  ["CCCCC(=O)Nc1cncc(-c2ccc3[nH]nc(-c4nc5c(-c6cc(F)cc(NCCN(C)C)c6)cncc5[nH]4)c3n2)c1 [compound 279]", "10 nM"],
  ["CCCC(=O)Nc1cncc(-c2ccc3[nH]nc(-c4nc5c(-c6ccsc6)ccnc5[nH]4)c3c2)c1 [compound 245]", "30 nM"],
  ["O=C(Nc1cc2cc(-c3cncc(NC4CCNC[C@@H]4F)n3)ccc2cn1)C1CC1 (stereo partly drawn) [compound 603]", "2700 nM"],
  ["CCCC(=O)Nc1cncc(-c2cnc3[nH]nc(-c4nc5c(-c6ccoc6)cccc5[nH]4)c3c2)c1 [compound 230]", "100 nM"],
  ["Cc1ccncc1-c1ccc2[nH]nc(-c3cc4c(-c5ccncc5)ccnc4[nH]3)c2n1 [compound 376]", "300 nM"]
]}
